Dear all, this message contains Kd results, target or system CAXIV (Homo sapiens, UniProt Q9ULX7).
Include the unit right after the number.

NS(=O)(=O)c1ccc(NCC(CC(=O)NN=Cc2ccc(C(=O)O)cc2)C(=O)NN=Cc2ccc(C(=O)O)cc2)c(Cl)c1 (stereo not shown) [Compound 18b] : 1 µM
NS(=O)(=O)c1ccc(NCC(Cc2n[nH]c(=S)n2-c2ccccc2)c2n[nH]c(=S)n2-c2ccccc2)c(Cl)c1 (stereo not shown) [Compound 25b] : 0.025 µM
Cc1cc(C)n(C(=O)CC(CNc2ccc(S(N)(=O)=O)cc2Cl)C(=O)n2nc(C)cc2C)n1 (stereo not shown) [Compound 20] : 0.33 µM

Form: Entry = CNC(=S)NNC(=O)CC(CNc1ccc(S(N)(=O)=O)cc1)C(=O)NNC(=S)NC (stereo not shown) [Compound 22a] | System = CAXIV (Homo sapiens, UniProt Q9ULX7) | Kd = ____;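 note: recombinant human CA XIV from E. coli, ANS-based thermal shift: Kd_obs fitted from melting temperature versus ligand concentration, ΔGint from Kd_obs corrected for deprotonated sulfonamide and Zn-water fractions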
3.3 µM

Entry to check: CCOC(=O)c1sc(N(CCC(=O)OC)c2ccc(S(N)(=O)=O)cc2)nc1C [Compound 32]
0.77 µM

Entry to check: Cc1csc(N(CCC(=O)O)c2ccc(S(N)(=O)=O)cc2)n1 [Compound 27]
0.17 µM

Entry to check: CCOC(=O)c1sc(N(CCC(=O)O)c2ccc(S(N)(=O)=O)cc2)nc1C [Compound 31]
2 µM
